System: MS2 coat protein
TEST DESCRIPTION: apparent KD of MS2 coat protein; designed switch direction (-1 OFF switch, 1 ON switch): -1; higher = weaker reporter binding
CONDITIONS: input ligand: none
MEASURED METRIC: apparent KD of MS2 coat protein (nM)
I only need the number, in nM, no unit after it.

Recorded result, AUGGGUCCUCUCGGAGCUACAUGAGGAUCACCCAUGUGUAUUGAGGAUAUCCACUGCUCAGGACGGGAGAAGGCAGUGUACUGU [Ex NG3 #87] (Eterna round: R96, puzzle: Exclusion NG 3) , apparent KD of MS2 coat protein: 58.4

Recorded result, UUUAAUCGUGACAUGGGUGACAUGAGGAUCACCCAUGUCACAAGCUUCUUGCUCGUCUUAUAAUUAACCCAUGUCAC [LRO Sensor-off var1-12 mod of Stov1-13-A1 by Brourd] (Eterna round: R97, puzzle: Sensor, turn-off variant 1) , apparent KD of MS2 coat protein: 18.3

* * *

Tested on: MS2 coat protein
TEST DESCRIPTION: apparent KD of MS2 coat protein; designed switch direction (-1 OFF switch, 1 ON switch): -1; higher = weaker reporter binding
CONDITIONS: input ligand: microRNA oligo, concentration not stated
Kindly state apparent KD of MS2 coat protein for each of the entries shown.

Recorded result, GUCCGGCAUGUAGGAUAUGGAUCCGAUUAGGAUUUAGAAGGACAUGAGGAUCACCCAUGUGCAUUUAAUUAGUCAUUACCGGAC [EXclNG1-LROPPY04] (Eterna round: R96, puzzle: Exclusion NG 1) , apparent KD of MS2 coat protein: 12.5 nM

Recorded result, CACCGUUAACUAGGAUAUCGUACAUGAGGAUCACCCAUGUAAUAAAUGAGAAUUUCGGAUGUAUGCGAGAAGGAGUAAAUCGGC [Ostricism 46 - Jieux - Exclusion NG 2] (Eterna round: R96, puzzle: Exclusion NG 2) , apparent KD of MS2 coat protein: 27.6 nM

Recorded result, GGAGGCCAGUAAGGAUAUUCAUGGUAGAUUCAUGAAGAAGGUACGGAGUGUCCUGACAUGAGGAUCACCCAUGUAGCCUCCAAG [Betien] (Eterna round: R96, puzzle: Exclusion NG 1) , apparent KD of MS2 coat protein: 25.1 nM

Recorded result, GCGGACAAGAUCGUGAGAUCAGAGACAUGAGGAUCACCCAUGUAGGAUAUCGAUUCGAAACGAAUCGAGAAGGGCAUAGUCCGC [JL denovo 6] (Eterna round: R96, puzzle: Exclusion NG 3) , apparent KD of MS2 coat protein: 14.9 nM

Recorded result, UACAUGAGGAUCACCCAUGUUUUGUCGUGUAUGGUAUUUAUCUAGGAUAUCAAUUUGUAUAUUUAUGAGAAGGAGAAUAUUAAU [JMF's solution 67] (Eterna round: R96, puzzle: Exclusion NG 3) , apparent KD of MS2 coat protein: 30.7 nM

* * *

Tested on: MS2 coat protein
TEST DESCRIPTION: apparent KD of MS2 coat protein; designed switch direction (-1 OFF switch, 1 ON switch): -1; higher = weaker reporter binding
CONDITIONS: input ligand: FMN 200 uM
Kindly state apparent KD of MS2 coat protein for each of the entries shown.
I only need the number, in nM, no unit after it.

Recorded result, UCUGCCGCCGUGAGGAUAUGCCCGAAAAAACGCGGGCAGAAGGCACAUGAGGAUCACCCAUGUCCCGCGGUUUU [salish99_bmx4_r4_136] (Eterna round: R97, puzzle: Brourd's mod of Exclusion 4) , apparent KD of MS2 coat protein: 31

Recorded result, AAUGAUUGACGAGGAUAUUGUGGUGAAACACGACGAGAAGGCGUAUGUCACAUGAGGAUCACCCAUGUGUGCUUUGUGGAUAUA [Ex NG1 #69] (Eterna round: R96, puzzle: Exclusion NG 1) , apparent KD of MS2 coat protein: 39.7

Recorded result, GGCAUCGGAGGAUAUACUAAUGGUGAUGCCCGAAGCUUUCUACUUGAGGAUCACCCAAGUAGAAGGCCGAUGCC [jl-ex2.4.80 ViennaUCT mod] (Eterna round: R97, puzzle: Exclusion 2) , apparent KD of MS2 coat protein: 11

Recorded result, GCUUGUGGGCAAGGAUAUCCUGCGCUGUUCUGGUUCGUGUCUGUCACAUGAGGAUCACCCAUGUGGGAGAAGGUGCCUGUGGCG [Design 66] (Eterna round: R96, puzzle: Exclusion NG 2) , apparent KD of MS2 coat protein: 22

Recorded result, GAUCCACAUGAGGAUCACCCAUGUGAGGAUAUGAUACUAUGUACUUCGGUACAUAGUAUCAGAAGGCAUAUGAA [Ex1-3: 47] (Eterna round: R96, puzzle: Exclusion 1) , apparent KD of MS2 coat protein: 199

* * *

Kindly state apparent KD of MS2 coat protein for each of the entries shown.
System: MS2 coat protein
TEST DESCRIPTION: apparent KD of MS2 coat protein; designed switch direction (-1 OFF switch, 1 ON switch): -1; higher = weaker reporter binding
CONDITIONS: Eterna round: R95; input ligand: microRNA oligo, concentration not stated
I only need the number, in nM, no unit after it.

The reported MS2 coat protein apparent KD of MS2 coat protein of AGUACUAACACGAAAGUGUUAGUACAAUAAGCUUGUAGAACAUGAGGAUCACCCAUGUCCUCAUAAGCUCGUCUUAU [Mat - Sensor v3 - Turn-off var 2 - D48] (puzzle: Sensor v3, turn-off variant 2) is 442

The reported MS2 coat protein apparent KD of MS2 coat protein of GGUUGUUGUUUCCGUUCUUACAUGAGGAUCACCCAUGUUUCUUGUCGUGCUCGCGUUGCUCGUCUGGCUGUCUGUUG [salish99_TOv1_r3_071] (puzzle: Sensor v3, turn-off variant 1) is 40.2

The reported MS2 coat protein apparent KD of MS2 coat protein of CAGUACUGAGGAUAUACAUGAGGAUCACCCAUGUGUCCUAGCUAGGAAACUAGCAUUAGUAGAAGGCAGUACUG [Fiskers Ex 3 828 mod 6] (puzzle: Exclusion 3) is 22.1

The reported MS2 coat protein apparent KD of MS2 coat protein of GGUCAAGAACAGCUCCGCGCUGUCCUUGACCGCUCAUUUACAUGAGGAUCACCCAUGUUUUUUGCUUGUCUUGUUUC [Estetexequ] (puzzle: Sensor v3, turn-off variant 2) is 98.7

The reported MS2 coat protein apparent KD of MS2 coat protein of GUGUACGGAGGAUAUAUGUGGCGAGCAUACGCUCGAGCUUCACAUGAGGAUCACCCAUGUAGAAGGCUGUGCAC [JL-ex2-2.12 Brourd mod] (puzzle: Exclusion 2) is 17.9

* * *

Tested on: MS2 coat protein
TEST DESCRIPTION: apparent KD of MS2 coat protein; designed switch direction (-1 OFF switch, 1 ON switch): -1; higher = weaker reporter binding
CONDITIONS: input ligand: none
MEASURED METRIC: apparent KD of MS2 coat protein
Output should be the measured figure followed by the unit it is expressed in.

The reported MS2 coat protein apparent KD of MS2 coat protein of AGCAGGCAUUCCUCUGGACACAUGAGGAUCACCCAUGUUCGUCGCUCGCAGCGUUGAGGCAUUACCCUUAACGCUUU [Eternabot (Original) Solution 29] (Eterna round: R97, puzzle: Sensor, turn-off variant 1) is 48.8 nM

The reported MS2 coat protein apparent KD of MS2 coat protein of AUUGUUUAUGUAGGAUAUGCCUGGCGUGCCUUCGCAGAAGGACAUGAGGAUCACCCAUGUAUUGCGGUCUGCGUUCAGAUCGCC [salish99_ExNG1_r4_027] (Eterna round: R96, puzzle: Exclusion NG 1) is 19.3 nM

The reported MS2 coat protein apparent KD of MS2 coat protein of CGGAACCAGACAGGAUAUACCUGUCCGAGACAGACACACAUGAGGAUCACCCAUGUUGAUGUCAGGUAGAAGGGUCAUAAAGAC [Eternabot solution 7] (Eterna round: R96, puzzle: Exclusion NG 2) is 11.5 nM

The reported MS2 coat protein apparent KD of MS2 coat protein of CGAUCACAUGAGGAUCACCCAUGUCAGGAUAUCGUCCAUAGGAAACAACCCUUCGAGGCGAGAAGGGACAAUCG [Eternabot (Original) Solution 29] (Eterna round: R97, puzzle: Exclusion 1) is 31.1 nM

* * *

Kindly state apparent KD of MS2 coat protein for each of the entries shown.
System: MS2 coat protein
TEST DESCRIPTION: apparent KD of MS2 coat protein, switch OFF state (with FMN for OFF switches, without FMN for ON switches); designed switch direction (-1 OFF switch, 1 ON switch): -1; higher = weaker reporter binding
CONDITIONS: FMN input: 0 or 200 uM; Eterna round: R93 (includes R88 designs)
I only need the number, in nM, no unit after it.

Recorded result, AAAAAGUGAGGAUAUACGGUGAGGAGUAGACACAACCUGGCGUAGAAGGCACAUGAGGAUCACCCAUGUCCAAA [EX4 Malc#13] , apparent KD of MS2 coat protein: 47.8

Recorded result, AAAAGGAUAGGAUAUACAUGAGGAUCACCCAUGUUUAUAAAUAAAAGAAAUAAAGAAAGUAGAAGGGUCAAGAA [LROPPY Exclusion 3 - v07_deltaG=3.4] , apparent KD of MS2 coat protein: 22.4

Recorded result, AAGAACCUAGGAUAUACAAAAUAAAAGAAAAGAAAGAAAGAACAUGAGGAUCACCCAUGUAGAAGGAGGAAGAA [Renseneb] , apparent KD of MS2 coat protein: 18.5

Recorded result, GGAAAACAUGAGGAUCACCCAUGUAAGGAUAUGCAAAAAAAAAAAGGAUAUAGAAGGAGCAGAAGGUACAAAGG [salish99-ex1-29] , apparent KD of MS2 coat protein: 57
